target: human adenosine A2b receptor (Homo sapiens (Human)); experiment: Cellular in vitro reporter gene test for A2b receptor activity (CHO-K1, CRE-luciferase, NECA stimulation); type: cell-based; details: recombinant CHO-K1 cell line, CRE-luciferase reporter, antagonism of EC50 concentration of NECA; in some cases means of several determinations, rounded to two significant figures; read-out: A2b receptor IC50
Sequence (P29275 whole entry): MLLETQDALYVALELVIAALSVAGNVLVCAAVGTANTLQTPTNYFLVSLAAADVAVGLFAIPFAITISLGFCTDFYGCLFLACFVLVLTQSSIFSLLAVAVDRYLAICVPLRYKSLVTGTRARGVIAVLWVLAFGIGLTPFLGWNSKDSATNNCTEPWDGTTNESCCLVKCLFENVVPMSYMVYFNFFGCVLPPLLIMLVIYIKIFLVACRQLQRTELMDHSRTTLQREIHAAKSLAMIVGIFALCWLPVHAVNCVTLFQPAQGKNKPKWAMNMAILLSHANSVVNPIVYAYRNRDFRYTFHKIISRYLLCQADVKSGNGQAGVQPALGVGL
Known IC50 of a selection of compounds
Your answer is read as nM, so omit the unit and give the number.

Exercise: Specify measured IC50 for CCn1c(=O)c2c(C)c(CN3CCNC3=O)sc2n(CC(C)OC)c1=O (racemic) [Example 62] .
Solution: 72

Exercise: Answer with the recorded IC50 of Cc1c(CN2CCNC(=O)C2=O)sc2c1c(=O)n(CC(F)(F)F)c(=O)n2CC1CCCO1 (single isomer, unassigned) [Example 489] only.
Solution: 27

Exercise: Output IC50 of COC(C)Cn1c(=O)c2c(C)c(CN3CCNC3=NC#N)sc2n(CCC(F)(F)F)c1=O (single isomer, unassigned) [Example 456]
Solution: 15

Exercise: Return the recorded IC50 value; entry: COCCn1c(=O)n(CC(C)(C)C)c(=O)c2c(C)c(CN3CCNC3=S)sc21
Solution: 5.7

Exercise: Quick one: give measured IC50 for Cc1c(CN2CCNC2=O)sc2c1c(=O)n(C(C)C)c(=O)n2CF
Solution: 41

Exercise: Report measured IC50; entry is CCn1c(=O)c2c(C)c(CN3CCNS3(=O)=O)sc2n(CCC(F)(F)F)c1=O
Solution: 2.7

Exercise: Item CCn1c(=O)c2c(C)c(CN3CCNC3=O)sc2n(Cc2nonc2C)c1=O : provide IC50
Solution: 17

Exercise: Note down IC50 recorded for COCCn1c(=O)c2c(C)c(Cn3nc[nH]c3=O)sc2n(CCC(F)(F)F)c1=O
Solution: 180
